Each entry below carries its recorded MIC Staphylococcus aureus (GC 3051).
# System: Staphylococcus sp.
# EXPERIMENT NOTES: in vitro antibacterial evaluation, MIC by broth dilution
# Type: cell-based
# RUN CONDITIONS: broth dilution, 18 hours at 35° C.
Entry rule: numbers only, all in µg/mL.

COMPOUND	MIC Staphylococcus aureus (GC 3051), µg/mL
CC(c1ccccc1)C1NC(=O)CNC(=O)C(CO)NC(=O)C(C(O)C2CNC(=N)N2C2OC(CO)C(O)C(O)C2O)NC(=O)C(C(O)C2CNC(=N)N2)NC(=O)C(Cc2ccc(OC3OC(CO)C(OC4OC5COC(C67CC8CC(CC(C8)C6)C7)OC5C(O)C4O)C(O)C3O)cc2)NC1=O (stereo not shown)	2

Param item = COc1ccc(COC2C(CO)OC(OC3C(CO)OC(Oc4ccc(CC5NC(=O)C(C(C)c6ccccc6)NC(=O)CNC(=O)C(CO)NC(=O)C(C(O)C6CNC(=N)N6C6OC(CO)C(O)C(O)C6O)NC(=O)C(C(O)C6CNC(=N)N6)NC5=O)cc4)C(O)C3O)C(O)C2O)cc1OCc1ccccc1 (stereo not shown) [Example 239a] ; retrieve measured MIC Staphylococcus aureus (GC 3051).
2

Where do the numbers come from? From patent US6914045B2.
